Test: Inhibition of Bordetella pertussis Adenylate cyclase toxin
measured.endpoint: pIC50
As a rule, pIC50 stands for the negative log10 of the concentration, concentration in M.

compound | pIC50
CC(C)OC(=O)[C@H](Cc1ccccc1)NP(=O)(COCCn1cnc2c(N)nc(F)nc21)N[C@@H](Cc1ccccc1)C(=O)OC(C)C | 6.84

Could you now consider this next compound?
Task item: Given Nc1ncnc2c1ncn2CCOCP(=O)(O)OP(=O)(O)OP(=O)(O)O [ADEFOVIR DIPHOSPHATE] , state its recorded pIC50.
Reply: 7.74

---

Test: Binding affinity to Sporosarcina pasteurii Urease assessed as inhibition constant
measured.endpoint: pKi
As a rule, pKi stands for the negative log10 of the concentration, concentration in M.

smi | measured.endpoint | measured.number
CN(C)CP(C)(=O)O | pKi | 6.21

Could you now consider this next compound?
Task item: Given CN(C)CP(=O)(O)O , state its recorded pKi.
Reply: 4.89

---

Experiment: Inhibition of GIM1 (unknown origin)
Set-up: species or system Homo sapiens
measured.endpoint: pIC50
As a rule, pIC50 stands for the negative log10 of the concentration, concentration in M.

Task item: Given COP(=O)(CCSC(C)=O)NCc1ccccn1 (stereo unspecified) , state its recorded pIC50.
Reply: 4.07

---

Molecular target: Carbonic anhydrase 2 (Homo sapiens)
Experiment: Binding affinity to human CA2 in U2OS cells assessed as inhibition constant
Assay type: cell-based
measured.endpoint: pKi
As a rule, pKi stands for the negative log10 of the concentration, concentration in M.

Task item: Given COCCOP(N)(=O)c1ccccc1 (stereo unspecified) , state its recorded pKi.
Reply: 4.48
